Test: Assay Measuring Activity of Test Compounds on Viral Production from HepAD38 Cells: HepAD38 cells grown in a T-150 flask (Corning, cat #: 430825) with Growth Medium (DMEM/F12 (1:1) (Hyclone, cat #: SH30023.02), 1× Pen/Strep (Invitrogen, cat #: 15140-122), 10% FBS (Tissue Culture Biologics, cat #: 101), 250 μg/mL G418 (Alfa Aesar, cat #: J62671), 1 μg/mL Tetracycline (Teknova, cat #: T3320)) were detached with 0.25% trypsin-EDTA to (Invitrogen, cat #: 25200-056). Tetracycline-free treatment medium (15 mL DMEM/F12 (1:1) 1× Pen/step, with 2% FBS, Tet-system approved (Clontech, cat #: 631106) were then added to mix, transferred into a 50 ml conical tube (Falcon, cat #: 21008-918,) and spun at 1300 rpm for 5 min. Pelleted cells were then re-suspended/washed with 50 mL of 1×DPBS (Invitrogen, cat #: 14190-136) 2 times and 50 mL treatment medium twice. HepAD38 cells were then re-suspended with 10 mL of treatment medium, syringed and counted. Wells of 96-well clear bottom TC plate (Corning, cat #: 3904,) were seeded at 50,000 cells/well in 180 μL of treatment medium, and 20 μL of either 10% DMSO (Sigma, cat #: D4540) as controls or a 10× solution of test compounds in 10% DMSO in treatment media was added for a final compound concentration starting at 10 μM, and plates were incubated in 5% CO2 incubator at 37° C. for 5 days.Subsequently viral load production was assayed by quantitative PCR (qPCR) of the HBV core sequence. PCR reaction mixture containing forward primers HBV-f 5′-CTGTGCCTTGGGTGGCTTT-3′ (IDT DNA), Reverse primers HBV-r 5′-[…]-3′ (IDT DNA), Fluorescent TaqMan™ Probes HBV-probe 5′-FAM/AGCTCCAAA/ZEN/[…]/3IABkFQ-3′ (IDT DNA), 10 μL/well of PerfeCTa® qPCR ToughMix® (Quanta Biosciences, Cat #: 95114-05K), and 6 μL/well of DEPC water (Alfa Aesar, cat #: J62087) was prepared. […] of supernatant was added to 16 μL of the reaction mixture in a qPCR plate (Applied Biosytems, Cat #: 4309849), sealed with a film (Applied Biosystems, Cat #: 4311971), centrifuged for a few seconds, and subsequently run on an Applied Biosystems VIIA7. The PCR mixture was incubated at 45° C. for 5 min, then 95° C. for 10 min, followed by 40 cycles of 10 seconds at 95° C. and 20 seconds at 60° C. Viral load was quantified against known HBV DNA standards by using ViiA™ 7 Software. Viral load in the supernatant from wells with treated cells were compared against viral load in supernatant from DMSO control wells (>3 per plate). Cell viability assay was performed with CellTiter-Glo Luminescent Cell Viability Assay (Promega, cat #: G7573) with modification. Mixed appropriate amount of CellTiter-Glo (CTG) 1×DPBS in a 1:1 ratio, added 100 uL of the mixture to each well followed completely removal of all supernatant in each well without touching cell surface. Incubated the plate at room temperature for 10 min on an orbital shaker, and then read the plate with a plate reader (TECAN M1000 or Envision).

compound | EC50
COc1ccc([C@H]2CC[C@H](c3nn(C)c(N)c3C(=O)Nc3ccc(F)c(Cl)c3)C2)cc1 | < 0.1 µM
Cn1nc(C2CC3COC(=O)CC3C2)c(C(=O)Nc2ccc(F)c(Cl)c2)c1N (stereo not drawn) | < 0.1 µM
COC(=O)CC1(O)CC2CC(c3nn(C)c(N)c3C(=O)Nc3ccc(F)c(Cl)c3)CC2C1 (stereo not drawn) | < 0.1 µM
